# assayed-system: T1, human GLP-1 receptor (human, UniProt P43220 24-463)
# T1 construct: whole, on cells; also called hGLP-1R; human glucagon-like peptide-1 receptor
# assay-remarks: SPA competition vs [125I]-GLP-1, hGLP-1R membranes
pKi: −log10 of the molar value.
Note to self: values exactly at 9 are label 1. So pKi at or above 9 is label 1, below is label 0.

Form field: pKi at least 9? Entry: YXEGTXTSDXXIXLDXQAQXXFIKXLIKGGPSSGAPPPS (Aib2, αMeF(2F)6, 4Pal10, Aib11, αMeL13, Orn16, Aib20, Orn21, K24(Z1), αMeY25, K28(Z1), C-term NH2; Z1=AEEA2-(γ-Glu)-(10-(4-carboxyphenoxy)decanoyl))
label 1

Quick check, pKi >= 9? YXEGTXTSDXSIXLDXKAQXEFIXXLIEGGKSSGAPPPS (Aib2, αMeF(2F)6, 1Nal10, αMeL13, Orn16, K17(Z1), Aib20, D-Glu24, αMeY25, K31(Z1), C-term NH2; Z1=AEEA2-(γ-Glu)-CO-(CH2)12-CO2H)
label 0

Identify whether the reported pKi of the following binder is 9 or greater: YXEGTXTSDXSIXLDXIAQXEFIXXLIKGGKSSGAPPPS (Aib2, αMeF(2F)6, 4Pal10, αMeL13, Orn16, Aib20, D-Glu24, αMeY25, K28(Z1), K31(Z1), C-term NH2; Z1=AEEA2-(γ-Glu)-CO-(CH2)12-CO2H)
label 0

Confirm if pKi reported for the binder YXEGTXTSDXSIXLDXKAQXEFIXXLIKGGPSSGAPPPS (Aib2, αMeF(2F)6, 4Pal10, αMeL13, Orn16, K17(Z1), Aib20, D-Glu24, αMeY25, K28(Z1), C-term NH2; Z1=AEEA2-(γ-Glu)-CO-(CH2)10-CH3) is 9 or above.
label 1

hey, is pKi for this one >= 9? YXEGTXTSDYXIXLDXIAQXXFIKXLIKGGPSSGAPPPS (Aib2, αMeF(2F)6, Aib11, αMeL13, Orn16, Aib20, Orn21, K24(Z1), αMeY25, K28(Z1), C-term NH2; Z1=AEEA3-(γ-Glu)-CO-(CH2)12-CO2H)
label 1

Check the entry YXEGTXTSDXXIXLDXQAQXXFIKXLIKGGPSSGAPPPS (Aib2, αMeF(2F)6, 4Pal10, Aib11, αMeL13, Orn16, Aib20, Orn21, K24(Z1), αMeY25, K28(Z1), C-term NH2; Z1=PEG4-(γ-Glu)-(10-(4-carboxyphenoxy)decanoyl)) : does pKi equal or exceed 9?
label 1

Tell me whether pKi is at least 9 here: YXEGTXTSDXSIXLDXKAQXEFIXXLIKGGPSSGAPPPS (Aib2, αMeF(2F)6, 4Pal10, αMeL13, Orn16, K17(Z1), Aib20, D-Glu24, αMeY25, K28(Z1), C-term NH2; Z1=AEEA2-(γ-Glu)-CO-(CH2)12-CO2H)
label 0

Threshold query (pKi >= 9) on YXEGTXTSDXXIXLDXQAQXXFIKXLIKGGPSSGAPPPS (Aib2, αMeF(2F)6, 4Pal10, Aib11, αMeL13, Orn16, Aib20, Orn21, K24(Z1), αMeY25, K28(Z1), C-term NH2; Z1=AEEA-(γ-Glu)-AEEA-(γ-Glu)-(10-(4-carboxyphenoxy)decanoyl))
label 1

Does pKi meet or surpass 9 for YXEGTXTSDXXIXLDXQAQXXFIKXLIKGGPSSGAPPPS (Aib2, αMeF(2F)6, 4Pal10, Aib11, αMeL13, Orn16, Aib20, Orn21, K24(Z1), αMeY25, K28(Z1), C-term NH2; Z1=PEG3-(γ-Glu)-CO-(CH2)12-CO2H) ?
label 1

Could you tell me if the measured pKi of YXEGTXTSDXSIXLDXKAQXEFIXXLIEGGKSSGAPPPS (Aib2, αMeF(2F)6, 4Pal10, αMeL13, Orn16, K17(Z1), Aib20, D-Glu24, αMeY25, K31(Z1), C-term NH2; Z1=(γ-Glu)-AEEA-CO-(CH2)12-CO2H) reaches 9 or more?
label 0

Quick check, pKi >= 9? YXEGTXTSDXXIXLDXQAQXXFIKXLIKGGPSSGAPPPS (Aib2, αMeF(2F)6, 4Pal10, Aib11, αMeL13, Orn16, Aib20, Orn21, K24(Z1), αMeY25, K28(Z1), C-term NH2; Z1=AEEA3-(γ-Glu)-CO-(CH2)12-CO2H)
label 1

// inclusive: pKi at least 9? input: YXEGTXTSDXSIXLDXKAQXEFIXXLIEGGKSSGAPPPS (Aib2, αMeF(2F)6, 4Pal10, αMeL13, Orn16, K17(Z1), Aib20, D-Glu24, αMeY25, K31(Z1), C-term NH2; Z1=(γ-Glu)-AEEA2-CO-(CH2)12-CO2H)
label 0

Reported pKi reaches at least 9 for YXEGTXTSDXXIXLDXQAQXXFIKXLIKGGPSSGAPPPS (Aib2, αMeF(2F)6, 4Pal10, Aib11, αMeL13, Orn16, Aib20, Orn21, K24(Z1), αMeY25, K28(Z1), C-term NH2; Z1=AEEA-(γ-Glu)-AEEA-(γ-Glu)-CO-(CH2)12-CO2H) ?
label 1

Is pKi at least 9? Consider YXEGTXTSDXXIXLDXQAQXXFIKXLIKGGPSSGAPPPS (Aib2, αMeF(2F)6, 4Pal10, Aib11, αMeL13, Orn16, Aib20, Orn21, K24(Z1), αMeY25, K28(Z1), C-term NH2; Z1=Ahx-AEEA-(γ-Glu)-(10-(4-carboxyphenoxy)decanoyl))
label 1

Check the entry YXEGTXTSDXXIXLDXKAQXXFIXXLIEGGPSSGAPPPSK (Aib2, αMeF(2F)6, 4Pal10, Aib11, αMeL13, Orn16, K17(Z1), Aib20, Orn21, D-Glu24, αMeY25, K40(Z1), C-term NH2; Z1=AEEA3-(γ-Glu)-CO-(CH2)10-CH3) [Y-Aib-EGT-αMeF(2F)-TSD-4Pal-Aib-I-αMeL-LD-Orn-K((2-[2-(2-Amino-ethoxy)-ethoxy]-acetyl)3-(γ …] : does pKi equal or exceed 9?
label 1

Determine whether this binder has pKi no lower than 9: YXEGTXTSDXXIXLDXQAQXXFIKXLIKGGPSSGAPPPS (Aib2, αMeF(2F)6, 4Pal10, Aib11, αMeL13, Orn16, Aib20, Orn21, K24(Z1), αMeY25, K28(Z1), C-term NH2; Z1=AEEA2-Trx-(γ-Glu)-(10-(4-carboxyphenoxy)decanoyl))
label 1

Dear colleague, could you confirm whether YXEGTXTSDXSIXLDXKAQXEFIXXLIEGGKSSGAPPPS (Aib2, αMeF(2F)6, 4Pal10, αMeL13, Orn16, K17(Z1), Aib20, D-Glu24, αMeY25, K31(Z1), C-term NH2; Z1=(εK)-AEEA2-(γ-Glu)-CO-(CH2)12-CO2H) has pKi at or above 9?
label 0
